Source: patent EP0552657A1

- Subject Of Test: 5-Lipoxygenase (Rattus norvegicus, UniProt P12527)
- Sequence (P12527 whole entry): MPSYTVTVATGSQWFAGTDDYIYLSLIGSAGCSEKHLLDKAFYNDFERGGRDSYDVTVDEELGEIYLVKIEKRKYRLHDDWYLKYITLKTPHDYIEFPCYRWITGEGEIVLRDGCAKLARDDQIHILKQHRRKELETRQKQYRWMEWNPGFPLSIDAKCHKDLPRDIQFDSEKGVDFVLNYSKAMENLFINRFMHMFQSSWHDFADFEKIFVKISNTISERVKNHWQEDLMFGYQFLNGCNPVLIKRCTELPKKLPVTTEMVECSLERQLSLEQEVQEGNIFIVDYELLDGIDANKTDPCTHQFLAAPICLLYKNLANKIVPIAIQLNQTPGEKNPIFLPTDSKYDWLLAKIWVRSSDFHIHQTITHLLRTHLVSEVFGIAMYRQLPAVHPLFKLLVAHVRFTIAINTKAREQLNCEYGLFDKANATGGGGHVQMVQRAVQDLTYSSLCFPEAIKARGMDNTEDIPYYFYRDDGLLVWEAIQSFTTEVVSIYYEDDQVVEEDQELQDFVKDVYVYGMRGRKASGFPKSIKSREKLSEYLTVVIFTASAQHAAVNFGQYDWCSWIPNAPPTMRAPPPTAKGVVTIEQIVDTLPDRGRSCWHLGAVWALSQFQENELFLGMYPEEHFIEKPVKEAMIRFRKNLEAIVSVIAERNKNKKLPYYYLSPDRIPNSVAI
- Experiment Summary: 5-lipoxygenase inhibition by boswellic acids (stimulated neutrophil granulocytes from rat peritoneum)
- Condition: read-out: IC50-Werte für die 5-LO-Hemmung
Assay Readout: IC50 (µM)
Output spec: scalar in µM, unitless text.

| Smiles Entry | IC50 (µM) |
| --- | --- |
| C[C@H]1[C@H](C)CC[C@]2(C)CC[C@]3(C)C(=CC[C@@H]4[C@@]5(C)CC[C@@H](O)[C@](C)(C(=O)O)[C@@H]5CC[C@]43C)[C@H]12 | 5 |
| CC(=O)O[C@@H]1CC[C@@]2(C)[C@@H](CC[C@]3(C)[C@@H]2CC=C2[C@@H]4[C@@H](C)[C@H](C)CC[C@]4(C)CC[C@]23C)[C@@]1(C)C(=O)O | 7 |
| CC(=O)O[C@@H]1CC[C@@]2(C)[C@@H](CC[C@]3(C)[C@@H]2C(=O)C=C2[C@@H]4[C@@H](C)[C@H](C)CC[C@]4(C)CC[C@]23C)[C@@]1(C)C(=O)O | 2 |
| C[C@H]1[C@H](C)CC[C@]2(C)CC[C@]3(C)C(=CC(=O)[C@@H]4[C@@]5(C)CC[C@@H](O)[C@](C)(C(=O)O)[C@@H]5CC[C@]43C)[C@H]12 | 5 |

Q: Quick one: IC50 for "CC(=O)O[C@@H]1CC[C@@]2(C)[C@@H](CC[C@]3(C)[C@@H]2CC=C2[C@@H]4CC(C)(C)CC[C@]4(C)CC[C@]23C)[C@@]1(C)C(=O)O" ?
A: 7

Q: Quick one: IC50 for "CC1(C)CC[C@]2(C)CC[C@]3(C)C(=CC[C@@H]4[C@@]5(C)CC[C@@H](O)[C@](C)(C(=O)O)[C@@H]5CC[C@]43C)[C@@H]2C1" ?
A: 5
